target: human recombinant Yes [a.a. 2–543 (end)] (Homo sapiens); construct: human recombinant Yes [a.a; 2–543 (end)]; purchased BPS Bioscience 40488; test: ADP-Glo kinase assay, inhibition rates of Yes phosphorylation activity (first and second screening); type: biochemical; details: first screening; mean of n = 4 wells; 10 μmol L−1 compound
Sequence (P07947 2-543): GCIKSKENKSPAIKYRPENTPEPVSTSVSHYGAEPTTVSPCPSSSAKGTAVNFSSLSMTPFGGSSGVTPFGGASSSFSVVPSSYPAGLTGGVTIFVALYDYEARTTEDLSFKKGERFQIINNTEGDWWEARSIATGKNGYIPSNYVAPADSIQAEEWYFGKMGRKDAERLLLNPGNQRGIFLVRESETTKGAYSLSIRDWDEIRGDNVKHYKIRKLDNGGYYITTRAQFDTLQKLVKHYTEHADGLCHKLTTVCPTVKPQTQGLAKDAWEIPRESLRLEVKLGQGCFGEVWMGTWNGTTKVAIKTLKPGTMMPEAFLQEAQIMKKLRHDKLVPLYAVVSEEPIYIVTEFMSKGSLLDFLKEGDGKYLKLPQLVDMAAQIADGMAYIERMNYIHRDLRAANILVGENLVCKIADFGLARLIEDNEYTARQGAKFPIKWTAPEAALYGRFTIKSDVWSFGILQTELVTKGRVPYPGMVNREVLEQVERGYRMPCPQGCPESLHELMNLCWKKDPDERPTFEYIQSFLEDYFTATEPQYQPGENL
// reported First screening IR (inhibition rate) for each item listed
PROPERTY MEASURED: First screening IR (inhibition rate) (%)

O=C(Nc1n[nH]c(-c2ccccn2)n1)c1ccc(-n2cccn2)c(F)c1 [Compound Z1128365659]
4
CC1=C(C(=O)N(C)C)C(c2ccc(-c3c(F)cccc3F)o2)NC(=S)N1 (centres unmarked) [Compound Z1211655765]
1
CC(=O)c1ccc(-c2ccc(C(=O)Nc3cc(F)ccc3C)o2)cc1 [Compound Z30903878]
-3
COc1ccc(OC)c(-n2c(-c3ccc(C)cc3)nn(CN3CCN(c4cccc(Cl)c4)CC3)c2=S)c1 [Compound Z44116384]
31
CN1CCN(C(=O)c2ccc(-c3cc(F)c(F)c(F)c3)cc2)C(CN)C1.Cl (centres unmarked) [Compound Z1457890473]
13
O=C(Nc1ccc(F)cc1)NC1CCN(c2ncnc3nc[nH]c23)C1 (centres unmarked) [Compound Z1193297141]
-11
Cc1ccccc1Nc1nc(N)nc(CSc2ccccc2)n1 [Compound Z19751109]
28
O=C(CCc1ccc2ccccc2n1)OCCOc1ccc(S(=O)(=O)N2CCOCC2)cc1 [Compound Z166077876]
-20
CN(Cc1ccc(F)cc1F)C(=O)c1cc(-c2ccccc2)nc2c1cnn2Cc1ccncc1 [Compound Z283846026]
11
Cc1n[nH]c(C)c1C1CCCCCN1C(=O)Nc1cnc(N(C)C)nc1 (centres unmarked) [Compound Z1590996465]
-1
COc1ccc2cc(C3(C)NC(=O)N(CN4CCN(C/C=C/c5ccccc5)CC4)C3=O)ccc2c1 (centres unmarked) [Compound Z44124119]
1

Source: paper PMC5607274
